Target: T1, human ILT5 (LILRB3) on CHO cells (human, UniProt O75022 24-626)
T1 construct: also called CHO ILT5 cell line
T1 sequence (O75022 other isoform, or with tags, fused parts or gaps): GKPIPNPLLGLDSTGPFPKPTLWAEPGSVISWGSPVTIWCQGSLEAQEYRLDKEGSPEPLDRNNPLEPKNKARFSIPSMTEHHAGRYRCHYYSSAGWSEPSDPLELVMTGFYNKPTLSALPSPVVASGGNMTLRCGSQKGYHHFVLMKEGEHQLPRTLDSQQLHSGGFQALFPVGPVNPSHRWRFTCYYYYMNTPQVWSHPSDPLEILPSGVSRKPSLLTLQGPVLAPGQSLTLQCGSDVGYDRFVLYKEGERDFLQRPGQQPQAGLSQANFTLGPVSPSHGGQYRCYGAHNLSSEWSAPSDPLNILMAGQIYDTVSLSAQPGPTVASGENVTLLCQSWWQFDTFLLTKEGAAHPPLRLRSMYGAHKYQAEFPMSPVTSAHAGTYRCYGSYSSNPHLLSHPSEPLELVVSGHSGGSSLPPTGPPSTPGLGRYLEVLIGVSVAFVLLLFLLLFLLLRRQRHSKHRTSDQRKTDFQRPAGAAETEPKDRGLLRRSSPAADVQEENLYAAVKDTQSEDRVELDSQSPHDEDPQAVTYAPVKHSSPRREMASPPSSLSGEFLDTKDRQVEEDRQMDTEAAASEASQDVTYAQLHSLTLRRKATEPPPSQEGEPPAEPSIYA
Test: flow cytometry, CHO transfectants

| Binder | binding result |
| --- | --- |
| 27H5 (antibody, human IgG1, V domains shown) VH: QVQLKESGPGLVAPSQSLSITCTVSGFSLTSYGVSWVRQPPGKGLEWLGVIWGDGNTNYHSALISRLSISKDNSKSQVFLKLNSLQTDDTATYYCARTNWDGWFAYWGQGTLVTVSA VL: DIVMTQSHKFMSTSVGDRVSITCKASQDVGTAVAWYQQKPGQSPKLLIYWASTRHTGVPDRFTGSGSGTDFTLTISNVQSEDLADYFCQQYRSYPLGTFGGGTKLEIK | no binding |
| 3H5 (antibody, human IgG1, V domains shown) VH: QVQLKESGPGLVAPSQSLSITCTVSGFSLTSYGVSWVRQPPGKGLEWLGVIWGDGSTNYHSALISRLSISKDNSKSQVFLKLNSLQTDDTATYYCAKPRWDDYAMDYWGQGTSVTVSS VL: DIQMTQTTSSLSASLGDRVTISCRASQDISNYLNWYQQKPDGTVKLLIYYTSRLHSGVPSRFSGSGSGTDYSLTISNLEQEDIATYFCQQGNTLWTFGGGTKLEIK | no binding |
| 18E1 (antibody, human IgG1, V domains shown) VH: QVQLQQSGAELVKPGASVRLSCKASGYTFTAHTIHWVKQRSGQGLEWIGWLYPGSGSIKYNEKFKDKATLTADKSSSTVYMELSRLTSEDSAVYFCARHTNWDFDYWGQGTTLTVSS VL: NIVLTQSPASLAVSLGQRATISCKASQSVDYGGASYMNWYQQKPGQPPKLLIYAASNLESGIPARFSGSGSGTDLTLNIHPVEEEDAAMYYCQQSNEEPWTFGGGTKLEIK | no binding |
